# testDescription: method code SF-AS, from Cloux, J.; Crommen, J.; Delarge, J.; Pirard, M.; Thunus, L. (1988). Attempts at calculating hydrophobic constant of the sulfonylurea group. J Pharm Belg, 43(3)141-151.
Parameter logP: see the listing below.
Write no unit; give the number alone.

Solved entries (count: 5):
[[record]]
chemicalstructure = "CC(C)NC(=O)NS(=O)(=O)c1ccccc1"
experimentalresult = 1.34

[[record]]
chemicalstructure = "CC(C)(C)NC(=O)NS(=O)(=O)c1ccccc1"
experimentalresult = 1.95

[[record]]
chemicalstructure = "NC(=O)NS(=O)(=O)c1ccccc1"
experimentalresult = 0.28

[[record]]
chemicalstructure = "CCCNC(=O)NS(=O)(=O)c1ccccc1"
experimentalresult = 1.44

[[record]]
chemicalstructure = "CCN(CC)C(=O)NS(=O)(=O)c1ccccc1"
experimentalresult = 0.99


Param item = `CN(C)C(=O)NS(=O)(=O)c1ccccc1` ; retrieve measured logP.
0.28

Param item = `CCNC(=O)NS(=O)(=O)c1ccccc1` ; retrieve measured logP.
0.9
